experimentDescription: Area under curve in brain was determined at the peroral dose of 10 mg/kg in diet-induced obese (DIO) mice; unit may be (ng.h/mL or ng. h/g)
Type: ADME, organism-based
Design: dose 10 mg/kg, route oral
particulars: mouse, in vivo, po
reportedProperty: AUC (ng·h/mL)
Answers are plain numbers, in ng·h/mL.

Annotate the compound CC(CC(C)(C)C)Oc1cccc2ccc(N)nc12 (single isomer, unassigned) with its measured AUC.
1030

* * *

experimentDescription: Half life in brain was determined at the peroral dose of 10 mg/kg in diet-induced obese (DIO) mice
Assay type: ADME, organism-based
Set-up: dose 10 mg/kg, route oral
particulars: mouse, po
reportedProperty: half-life (h)
Give bare numbers, in h.

Annotate the compound CC(CC(C)(C)C)Oc1cccc2ccc(N)nc12 (single isomer, unassigned) with its measured half-life.
2.3
